# Test system: CAL-51
# Run Parameters: 72 h
Documented EC50, CellTiter-Glo across a set of compounds
Value Type: EC50, CellTiter-Glo (nM)

>>> recorded_number("Cc1cc(Nc2cc(CN3CCOCC3)c3nc(C)c(Cc4ccc(Cl)cc4F)n3n2)n[nH]1")
775
>>> recorded_number("O=C(Nc1ccncc1)C(=O)c1cn(Cc2ccc(Cl)cc2)c2ccccc12")
165
>>> recorded_number("O=C(/C=C/c1cccc(S(=O)(=O)Nc2ccccc2)c1)NO")
29.2
>>> recorded_number("CO[C@H]1C[C@@H]2CC[C@@H](C)[C@@](O)(O2)C(=O)C(=O)N2CCCC[C@H]2C(=O)O[C@H]([C@H](C)C[C@@H]2CC[C@@H](OP(C)(C)=O)[C@H](OC)C2)CC(=O)[C@H](C)/C=C(\\C)[C@@H](O)[C@@H](OC)C(=O)[C@H](C)C[C@H](C)/C=C/C=C/C=C/1C")
1.61
